# assay_name: AUC in Sprague-Dawley rat at 5 mg/kg, po
# Type: ADME, organism-based
# Parameters: dose 5 mg/kg
# condition_description: in vivo
quantity_name: AUC (µM·h)

smiles_entry: Cc1cc(CNC(=O)c2nc3n(c(=O)c2O)CC2CCC3(NC(=O)C(=O)N(C)C)CC2)ccc1F
measured_value: 14.7

---

# Test system: Human immunodeficiency virus 1
# assay_name: Antiviral activity against HIV1 harboring G140S/Q148H double mutant in presence of HSA
# Format: functional, organism-based

smiles_entry: Cc1cc(CNC(=O)c2nc3n(c(=O)c2O)CC2CCC3(NC(=O)C(=O)N(C)C)CC2)ccc1F
test_system: Human immunodeficiency virus 1
units: nM
EC50: 21
